# ∆Tm, nano-DSF listing for each entry below
- SUBJECT_OF_TEST: human MPC1L/MPC2 complex (Homo sapiens, UniProt O95563+P0DKB6)
- Construct: eight-histidine tag (C, cleaved yes); TEV protease cleavage site (part stays on MPC2 after digestion) (C, cleaved yes); made in house; host or cells: Saccharomyces cerevisiae SHY15 (mpc triple deletion strain), purified from mitochondria
- Sequence (P0DKB6 2-136): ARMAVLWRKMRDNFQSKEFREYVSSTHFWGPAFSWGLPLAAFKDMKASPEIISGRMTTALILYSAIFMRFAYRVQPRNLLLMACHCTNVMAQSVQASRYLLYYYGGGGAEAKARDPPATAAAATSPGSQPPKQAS
- Sequence (O95563 2-127): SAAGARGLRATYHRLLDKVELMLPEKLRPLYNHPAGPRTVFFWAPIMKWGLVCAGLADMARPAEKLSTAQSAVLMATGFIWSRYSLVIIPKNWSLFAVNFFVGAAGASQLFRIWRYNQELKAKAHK
- PROTOCOL_TEXT: nano-DSF thermostability shift assay, purified MPC1L/MPC2
- Format: binding
- CONDITION_PARAMETERS: inhibitor 100 μM
All answers are understood in °C, so give the number only.

Example entries begin here.
MOLECULE	RECORDED_METRIC	MEASURE_UNIT	RESULT_VALUE
N#CC(=Cc1cn(-c2ccccc2)c2ccccc12)C(=O)O [UK5099, α-cyano-β-(1-phenylindol-3-yl)-acrylate]	∆Tm, nano-DSF	°C	9.2
CCc1ccc(CCOc2ccc(CC3SC(=O)NC3=O)cc2)nc1 (stereo not shown)	∆Tm, nano-DSF	°C	1.1
N#CC(=Cc1ccc(O)cc1)C(=O)O [CHC, α-cyano-4-hydroxy-cinnamate]	∆Tm, nano-DSF	°C	7.0

Task: Using the record for CCc1ccc(C(=O)COc2ccc(CC3SC(=O)NC3=O)cc2)nc1 (stereo not shown) , report its ∆Tm, nano-DSF.
Result: 1.9
